These data points were gathered from ChEMBL document CHEMBL1759980.

# system: Dipeptidyl peptidase 4 (Homo sapiens)
# measurement_protocol: Inhibition of human DPP-4 assessed as cleavage of substrate using H-Gly-Pro-pNA chromogenic substrate at 10 uM after 10 mins by double beam spectrophotometer
# Sequence (P27487 whole entry, looked up): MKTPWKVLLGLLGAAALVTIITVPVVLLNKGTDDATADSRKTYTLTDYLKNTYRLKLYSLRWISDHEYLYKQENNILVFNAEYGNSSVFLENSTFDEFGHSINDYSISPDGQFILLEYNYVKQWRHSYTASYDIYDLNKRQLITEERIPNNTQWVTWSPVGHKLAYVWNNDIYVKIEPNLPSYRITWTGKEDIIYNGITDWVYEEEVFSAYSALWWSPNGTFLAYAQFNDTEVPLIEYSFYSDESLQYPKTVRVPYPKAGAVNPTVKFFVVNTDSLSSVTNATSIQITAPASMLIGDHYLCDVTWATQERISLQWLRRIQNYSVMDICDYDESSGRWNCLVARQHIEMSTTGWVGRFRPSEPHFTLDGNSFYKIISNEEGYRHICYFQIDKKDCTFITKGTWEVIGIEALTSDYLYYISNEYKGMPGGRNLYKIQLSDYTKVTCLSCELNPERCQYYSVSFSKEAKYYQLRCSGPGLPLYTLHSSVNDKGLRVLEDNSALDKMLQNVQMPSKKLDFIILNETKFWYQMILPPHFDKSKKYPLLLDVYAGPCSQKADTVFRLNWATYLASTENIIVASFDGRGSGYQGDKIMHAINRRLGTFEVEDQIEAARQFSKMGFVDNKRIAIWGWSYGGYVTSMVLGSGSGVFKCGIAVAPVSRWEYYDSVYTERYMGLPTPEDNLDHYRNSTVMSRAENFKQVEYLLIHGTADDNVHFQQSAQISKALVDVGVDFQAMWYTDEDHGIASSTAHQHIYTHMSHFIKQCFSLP
property_label: inhibition

[
  {
    "compound": "CCCN1C(c2ccc(C(C)C)cc2)CC(=O)[C@H]2C1C[C@H]1[C@@H]3CC=C4C[C@@H](O)CC[C@]4(C)[C@H]3CC[C@]21C (stereo not given in full)",
    "system": "Dipeptidyl peptidase 4 (Homo sapiens)",
    "property_label": "inhibition",
    "result": "19.1%"
  },
  {
    "compound": "COc1ccc(/C=C/C(=O)C2=CC[C@H]3[C@@H]4CC=C5C[C@@H](O)CC[C@]5(C)[C@H]4CC[C@]23C)cc1OC",
    "system": "Dipeptidyl peptidase 4 (Homo sapiens)",
    "property_label": "inhibition",
    "result": "24.1%"
  },
  {
    "compound": "CCCN1C(c2ccc(OC)cc2)CC(=O)[C@H]2C1C[C@H]1[C@@H]3CC=C4C[C@@H](O)CC[C@]4(C)[C@H]3CC[C@]21C (stereo not given in full)",
    "system": "Dipeptidyl peptidase 4 (Homo sapiens)",
    "property_label": "inhibition",
    "result": "20.4%"
  },
  {
    "compound": "CC(=O)[C@H]1C(NCc2ccccc2)C[C@H]2[C@@H]3CC=C4C[C@@H](O)CC[C@]4(C)[C@H]3CC[C@]12C (stereo not given in full)",
    "system": "Dipeptidyl peptidase 4 (Homo sapiens)",
    "property_label": "inhibition",
    "result": "28.4%"
  },
  {
    "compound": "CC(=O)O[C@H]1CC[C@@]2(C)C(=CC[C@@H]3[C@@H]2CC[C@]2(C)C(C(C)=O)=CC[C@@H]32)C1",
    "system": "Dipeptidyl peptidase 4 (Homo sapiens)",
    "property_label": "inhibition",
    "result": "17.3%"
  }
]

###

Record: IC50 reported on Dipeptidyl peptidase 4 (Homo sapiens).

[
  {
    "compound": "CCCN1C(c2ccc(C(C)C)cc2)CC(=O)[C@H]2C1C[C@H]1[C@@H]3CC=C4C[C@@H](O)CC[C@]4(C)[C@H]3CC[C@]21C (some centres not stated)",
    "IC50, µM": 29.1
  },
  {
    "compound": "CC(=O)O[C@H]1CC[C@@]2(C)C(=CC[C@@H]3[C@@H]2CC[C@]2(C)C(C(C)=O)=CC[C@@H]32)C1",
    "IC50, µM": 35.6
  }
]
